TARGET_OR_SYSTEM: NK-1 receptor (Cavia porcellus, UniProt P30547)
Construct: tissue Keystone Biologicals, Cleveland, OH; host or cells: guinea pig lung
Sequence (P30547 whole entry): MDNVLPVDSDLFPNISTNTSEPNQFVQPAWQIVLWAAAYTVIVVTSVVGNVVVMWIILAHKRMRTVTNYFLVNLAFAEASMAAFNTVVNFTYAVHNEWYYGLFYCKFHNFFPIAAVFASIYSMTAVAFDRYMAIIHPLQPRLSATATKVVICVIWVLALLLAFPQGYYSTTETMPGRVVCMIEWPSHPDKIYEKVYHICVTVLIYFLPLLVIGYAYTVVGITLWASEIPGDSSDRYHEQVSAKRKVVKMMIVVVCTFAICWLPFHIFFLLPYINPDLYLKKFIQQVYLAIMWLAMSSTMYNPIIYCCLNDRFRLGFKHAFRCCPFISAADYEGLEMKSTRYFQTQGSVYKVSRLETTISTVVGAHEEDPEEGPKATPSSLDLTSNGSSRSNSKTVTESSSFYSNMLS
EXPERIMENTAL_PROTOCOL: NK-1 receptor binding (125I-Bolton-Hunter substance P) in guinea pig lung membranes
TEST_CONDITIONS: 0.1 nM 125I-Bolton-Hunter Lys-3 substance P, mean ± S.E.M.
Where a SMILES comes first, the peptide text is derived from it. [ ]: non-standard residue; d: D form.
PARAMETER: IC50 (nM)
Your answer is read as nM, so omit the unit and give the number.

| COMPOUND | IC50 / nM |
| --- | --- |
| CC(C)C[C@@H]1NC(=O)[C@@H](Cc2c[nH]c3ccccc23)NC(=O)[C@H](Cc2c[nH]c3ccccc23)NC(=O)CNC(=O)[C@H](Cc2c[nH]c3ccccc23)NC(=O)[C@H](CCCNC(=N)N)NC1=O [cyclo[Trp--trp--Leu--Arg--Trp--Gly], cyclo[Trp-trp-Leu-Arg-Trp-Gly]] (cyclo(GW[dW]LRW)) | 4830 |

Next, consider the following compound.
Form field IC50, entry N=C(N)NCCC[C@@H]1NC(=O)[C@@H]2CCCN2C(=O)[C@@H](Cc2ccccc2)NC(=O)[C@H](Cc2ccccc2)NC(=O)CNC(=O)[C@H](Cc2ccccc2)NC1=O [cyclo[Phe--phe--Pro--Arg--Phe--Gly], cyclo[Phe-phe-Pro-Arg-Phe-Gly]] (cyclo(FGF[dF]PR)) : 9310

Values from patent US5521156A
